- system_tested: Rabies virus glycoprotein G, strain CVS-11 (Challenge Virus Standard-11, ATCC VR 959) (Rabies virus, strain CVS-11)
- protocol_text: cell-based or functional assay
We begin with a simple list: items and their reported Potency (IU/nM) increase versus monovalent.

Param item = 213-E6 5GS 212-C12 (VHH) EVQLVESGGGLVQAGASLRLSCAASGSTLSRYGVGWFRQAPGKERELVASVDWSGSRTYYADSVKGRFTISRDNAKNTGYLQMNSLKPDDTAVYYCAADSSVVPGIEKYDDWGLGTQVTVSSGGGGSEVQLVESGGGLVQPGGSLRLSCAASGFTFGSSDMSWVRQAPGKGPEWVSGINSGGGRTLYADSVKGRFTISRDNAKNTLYLQMNSLKSEDTAVYYCATDLYGSSWYTDYWSQGTQVTVSS ; retrieve measured Potency (IU/nM) increase versus monovalent.
6.3 fold

Param item = 214-F8 15GS 214-F8 (VHH) EVQLVESGGDLVQAGGSLRLSCVASGSTYSINAMGWYRQAPGKLRELVAAFRTGGSTDYADSVKGRFTISRDTAKNTVYLQMNSLKPEDTAVYYCNAEVIYYPYDYWGQGTQVTVSSGGGGSGGGGSGGGGSEVQLVESGGDLVQAGGSLRLSCVASGSTYSINAMGWYRQAPGKLRELVAAFRTGGSTDYADSVKGRFTISRDTAKNTVYLQMNSLKPEDTAVYYCNAEVIYYPYDYWGQGTQVTVSS ; retrieve measured Potency (IU/nM) increase versus monovalent.
63.7 fold

Param item = 214-E8 15GS 213-H7 (VHH) EVQLVESGGGSVQAGGSLRLSCAASGGTFNPYVMAWFRQAPGNEREFVARIRWSGGDAYYDDSVKGRFAITRDAAKNTVHLQMNSLKPEDTAVYYCAAATYGYGSYTYGGSYDLWGQGTQVTVSSGGGGSGGGGSGGGGSEVQLVESGGGLVQAGGSLRLSCAASGRTLSSYRMGWFRQAPGKEREFISTISWNGRSTYYADSVKGRFIFSEDNAKNTVYLQMNSLKPEDTAVYYCAAALIGGYYSDVDAWSYWGPGTQVTVSS ; retrieve measured Potency (IU/nM) increase versus monovalent.
605 fold
